target: human Fc (human); assay: ELISA, negative control
recorded_metric: optical density (OD)
Respond numerically; units are OD and should not be typed.

binder | experimental_result
367_G03 (antibody, V domains shown) VH: EVQLLESGGGLVQPGGSLRLSCAASGFTFDSYSMHWVRQAPGKGLEWVANINYNGGYTSYADSVKGRFTISRDNSKNTLYLQMNSLRAEDTAVYYCARAATWHDTHLDYWGQGTLVTVSS VL: DIQMTQSPSSLSASVGDRVTITCRASQSIVSYVNWYQQKPGKAPKLVIYAATSRHSGVPSRFSGSGSGTDFTLTISSLQPEDFATYYCQQSYDLPLTFGGGTKVEIK | 0.341

Then there is this binder:
Tell me the measured optical density of 369_A01 (antibody, V domains shown) VH: EVQLLESGGGLVQPGGSLRLSCAASGFTFDSYSMNWVRQAPGKGLEWVSGINYNSGYKGYADSVKGRFTISRDNSKNTLYLQMNSLRAEDTAVYYCARSATWHDTHLDYWGQGTLVTVSS VL: DIQMTQSPSSLSASVGDRVTITCRASQSILTYVNWYQQKPGKAPKLVIYAATSLASGVPSRFSGSGSGTDFTLTISSLQPEDFATYYCQQSYELPLTFGGGTKVEIK , please.
0.456

Values were extracted from patent US20210380703A1.
